target system: Recombinant human His6-USP1/His6-UAF1 complex protein (Homo sapiens)
Construct: His6
test: In vitro inhibitory activity against USP1 (Ubiquitin Rhodamine 110 fluorescence detection, 384-well plate)
stated conditions: Ub-Rho substrate, 1 hour pre-incubation, read after 30 minutes
parameter: IC50 (nM)
Unit nM implied. Number only.

COc1cnc(-c2c(OC)cnn2C(C)C)nc1NCC1CCN(c2nc(C(F)(F)F)cn2C)CC1	56
COc1ncnc(C2CC2)c1-c1nc(NCc2ccc(OC3CC(OC)C3)cc2)c2occc2n1 (stereo not shown)	58
Cc1ncn(C(C)C)c1-c1nc(NCC23CCC(c4ccc(C(F)(F)F)cn4)(CC2)CC3)c2occc2n1	431
COCc1cnc(-c2c(OC)ncnc2C2CC2)nc1N(C)Cc1ccc(-c2nc(C(F)(F)F)cn2C(C)C)cc1	9
CC(C)Oc1cnc(-c2ccccc2C(C)C)nc1N(C)Cc1ccc(-c2nc(C(F)(F)F)cn2C)cc1	9.9
C#CCN(Cc1ccc(-c2nc(C(F)(F)F)cn2C)cc1)c1nc(-c2c(OC)ncnc2C2CC2)ncc1OC	5.2

**Query** Would you kindly share the measured IC50 for COc1cnc(-c2c(OC)ncnc2C2CC2)nc1N(C#N)CC12CCC(c3nc(C(F)(F)F)cn3C)(CC1)CC2 ?
**Result** 6.9

* * *

target system: Recombinant human His6-USP1/His6-UAF1 complex protein (Homo sapiens, UniProt O94782)
Construct: His6
Sequence (O94782 whole entry): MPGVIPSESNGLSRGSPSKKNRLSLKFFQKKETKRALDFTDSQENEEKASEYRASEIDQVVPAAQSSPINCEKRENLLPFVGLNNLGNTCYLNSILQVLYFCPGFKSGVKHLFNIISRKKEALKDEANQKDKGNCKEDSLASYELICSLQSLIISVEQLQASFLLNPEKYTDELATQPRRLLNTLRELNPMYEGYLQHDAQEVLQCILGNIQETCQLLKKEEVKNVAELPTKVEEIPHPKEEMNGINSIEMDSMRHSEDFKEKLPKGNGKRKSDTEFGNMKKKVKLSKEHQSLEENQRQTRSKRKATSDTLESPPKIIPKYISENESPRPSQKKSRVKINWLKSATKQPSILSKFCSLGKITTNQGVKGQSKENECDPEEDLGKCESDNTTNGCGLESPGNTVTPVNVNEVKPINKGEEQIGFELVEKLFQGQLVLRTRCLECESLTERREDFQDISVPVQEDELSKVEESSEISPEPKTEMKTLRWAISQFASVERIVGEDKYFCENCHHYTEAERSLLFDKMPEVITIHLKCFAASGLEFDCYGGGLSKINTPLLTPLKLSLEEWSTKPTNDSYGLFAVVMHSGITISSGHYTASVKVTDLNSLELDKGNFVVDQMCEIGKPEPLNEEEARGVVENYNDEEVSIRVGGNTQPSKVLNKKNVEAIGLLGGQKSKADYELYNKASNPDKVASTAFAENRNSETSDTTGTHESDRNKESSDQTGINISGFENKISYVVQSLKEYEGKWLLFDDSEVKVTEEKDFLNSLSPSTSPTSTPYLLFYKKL
Sequence (Q8TAF3 whole entry partner): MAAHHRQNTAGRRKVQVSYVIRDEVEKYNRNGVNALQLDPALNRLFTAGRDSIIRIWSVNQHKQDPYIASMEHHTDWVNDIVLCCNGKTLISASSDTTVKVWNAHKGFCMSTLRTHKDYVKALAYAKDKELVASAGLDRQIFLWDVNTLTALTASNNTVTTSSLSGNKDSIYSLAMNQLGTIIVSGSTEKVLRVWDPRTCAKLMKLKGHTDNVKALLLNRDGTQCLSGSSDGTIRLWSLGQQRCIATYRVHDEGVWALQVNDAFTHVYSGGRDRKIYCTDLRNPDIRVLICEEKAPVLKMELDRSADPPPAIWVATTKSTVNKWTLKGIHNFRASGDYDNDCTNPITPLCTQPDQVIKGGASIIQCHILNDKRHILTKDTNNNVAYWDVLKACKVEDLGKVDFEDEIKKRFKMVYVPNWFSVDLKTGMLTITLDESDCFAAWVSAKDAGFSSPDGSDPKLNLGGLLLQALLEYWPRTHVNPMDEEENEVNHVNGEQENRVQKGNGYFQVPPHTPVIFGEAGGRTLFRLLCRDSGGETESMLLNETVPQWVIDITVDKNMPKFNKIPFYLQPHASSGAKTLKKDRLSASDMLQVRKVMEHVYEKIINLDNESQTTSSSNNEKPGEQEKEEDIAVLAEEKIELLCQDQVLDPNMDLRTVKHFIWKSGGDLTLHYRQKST
test: In vitro inhibitory activity against USP1 (Ubiquitin Rhodamine 110 fluorescence detection, 384-well plate)
stated conditions: Ub-Rho substrate, 1 hour pre-incubation, read after 30 minutes
Please use 1 for IC50 under 9 nM and 0 for everything else, ties included.

Record excerpt, results attached:
COc1ncnc(C2CC2)c1-c1ncc(OC(C)C)c(NCc2ccc(-c3nc(C(F)(F)F)cn3C)cc2)n1	0
COc1cnc(-c2c(C)ncnc2OC2CC2)nc1NCC12CCC(c3nc(C(F)(F)F)cn3C)(CC1)CC2	0
CC(C)Oc1cnc(-c2ccccc2C(C)C)nc1NCc1ccc(-c2nc(C(F)(F)F)cn2C)cc1	1
COc1cnc(-c2c(OC)cnn2C(C)C)nc1N(C)CC1CCN(c2ccccn2)CC1	0
CC(C)n1ncc(Cl)c1-c1nc(NCc2ccc(-c3nc(C(F)(F)F)cn3C)cc2)c2occc2n1	1

Kindly consider the entry below.
**Query** Just wondering, is IC50 of CC(C)Oc1cnc(-c2ccccc2C(C)C)nc1N(C)CC1CCN(c2nc(C(F)(F)F)cn2C)CC1 below 9 nM?
**Result** 0

* * *

target system: Recombinant human His6-USP1/His6-UAF1 complex protein (Homo sapiens, UniProt O94782)
Construct: His6
test: In vitro inhibitory activity against USP1 (Ubiquitin Rhodamine 110 fluorescence detection, 384-well plate)
stated conditions: Ub-Rho substrate, 1 hour pre-incubation, read after 30 minutes
parameter: pIC50
Please treat pIC50 as minus the base-10 logarithm of the molar concentration.

Answered examples (3):
COc1ncnc(C2CC2)c1-c1ncc(OC(C)C)c(N(C)CC2CCN(c3nc(C(F)(F)F)cn3C)CC2)n1	7.71
CC(C)c1ccccc1-c1ncc(O)c(NCc2ccc(-c3nc(C(F)(F)F)cn3C)cc2)n1	7.84
CC(C)c1ccccc1-c1nc(NCc2ccc(-c3ccccn3)cc2)c2occc2n1	8.55

**Query** What pIC50 value was documented for this molecule, COc1cnc(-c2ccccc2C(C)C)nc1NCc1ccc(-n2nc(C(F)(F)F)cc2C)cc1 ?
**Result** 8.35
